tested on: N. meningitidis; experiment: In vitro activity against Neisseria (MIC), N. meningitidis; assay type: cell-based; settings: N. meningitidis A21497; Compound 9 lot 2

[
  {
    "chemical-structure": "N[C@@H](C(=O)N[C@@H]1C(=O)N2C(C(=O)O)=C(/C=C\\Cc3ccccc3)CS[C@H]12)c1ccc(O)cc1",
    "units-label": "µg/mL",
    "bound-sign": ">",
    "MIC": 100
  },
  {
    "chemical-structure": "N[C@@H](C(=O)N[C@@H]1C(=O)N2C(C(=O)O)=C(Cl)CS[C@H]12)c1ccccc1",
    "units-label": "µg/mL",
    "bound-sign": "=",
    "MIC": 0.8
  },
  {
    "chemical-structure": "CC1=C(C(=O)O)N2C(=O)[C@@H](NC(=O)[C@H](N)c3ccc(O)cc3)[C@H]2SC1",
    "units-label": "µg/mL",
    "bound-sign": "=",
    "MIC": 6.3
  },
  {
    "chemical-structure": "C/C=C\\C1=C(C(=O)O)N2C(=O)[C@@H](NC(=O)[C@H](N)c3ccc(O)cc3)[C@H]2SC1",
    "units-label": "µg/mL",
    "bound-sign": "=",
    "MIC": 0.8
  }
]

----------
experiment: in vivo; details: mouse, po, 100 mg/kg, AUC
The following compounds are shown together with reported AUC values.
observable: AUC (ng·h/mL)

[
  {
    "chemical-structure": "C=CC1=C(C(=O)O)N2C(=O)[C@@H](NC(=O)[C@H](N)c3ccc(O)cc3)[C@H]2SC1",
    "val": 49000
  },
  {
    "chemical-structure": "COC/C=C\\C1=C(C(=O)O)N2C(=O)[C@@H](NC(=O)[C@H](N)c3ccc(O)cc3)[C@H]2SC1",
    "val": 197000
  },
  {
    "chemical-structure": "C/C=C/C1=C(C(=O)O)N2C(=O)[C@@H](NC(=O)[C@H](N)c3ccc(O)cc3)[C@H]2SC1",
    "val": 69000
  },
  {
    "chemical-structure": "N[C@@H](C(=O)N[C@@H]1C(=O)N2C(C(=O)O)=C(/C=C\\Cc3ccccc3)CS[C@H]12)c1ccc(O)cc1",
    "val": 81000
  }
]

----------
The following compounds are shown together with reported MIC values.
system: N. gonorrheae; experiment: In vitro activity against Neisseria (MIC), N. gonorrheae; format: cell-based; settings: N. gonorrheae A20154; Compound 9 lot 2

[
  {
    "chemical-structure": "CC1=C(C(=O)O)N2C(=O)[C@@H](NC(=O)[C@H](N)c3ccc(O)cc3)[C@H]2SC1",
    "MIC": "6.3 µg/mL"
  },
  {
    "chemical-structure": "N[C@@H](C(=O)N[C@@H]1C(=O)N2C(C(=O)O)=C(Cl)CS[C@H]12)c1ccccc1",
    "MIC": "0.8 µg/mL"
  },
  {
    "chemical-structure": "C/C=C\\C1=C(C(=O)O)N2C(=O)[C@@H](NC(=O)[C@H](N)c3ccc(O)cc3)[C@H]2SC1",
    "MIC": "0.8 µg/mL"
  },
  {
    "chemical-structure": "N[C@@H](C(=O)N[C@@H]1C(=O)N2C(C(=O)O)=C(/C=C\\Cc3ccccc3)CS[C@H]12)c1ccc(O)cc1",
    "MIC": "> 100 µg/mL"
  }
]
